study.target: Cholinesterase (Homo sapiens, UniProt P06276)
Sequence (P06276 whole entry): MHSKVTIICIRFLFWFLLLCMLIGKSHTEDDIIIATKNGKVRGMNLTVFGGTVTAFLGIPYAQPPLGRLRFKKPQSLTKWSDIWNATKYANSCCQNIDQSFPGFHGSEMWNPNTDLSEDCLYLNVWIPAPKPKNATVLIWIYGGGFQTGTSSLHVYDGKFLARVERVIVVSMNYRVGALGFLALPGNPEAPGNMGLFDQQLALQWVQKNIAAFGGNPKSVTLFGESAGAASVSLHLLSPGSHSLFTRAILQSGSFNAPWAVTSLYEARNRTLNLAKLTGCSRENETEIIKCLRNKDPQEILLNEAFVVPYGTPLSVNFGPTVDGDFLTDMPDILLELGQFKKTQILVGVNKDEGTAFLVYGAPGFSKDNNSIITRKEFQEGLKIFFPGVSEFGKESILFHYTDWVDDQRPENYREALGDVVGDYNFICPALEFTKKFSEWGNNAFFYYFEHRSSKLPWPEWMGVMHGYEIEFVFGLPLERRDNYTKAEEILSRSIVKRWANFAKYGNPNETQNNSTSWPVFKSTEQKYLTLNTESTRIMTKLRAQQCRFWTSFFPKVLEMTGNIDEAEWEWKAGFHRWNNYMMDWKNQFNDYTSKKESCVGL
experimental.protocol: Inhibition of human serum BuChE using butyrylthiocholine iodide as substrate at 10 uM incubated for 10 mins followed by substrate addition by DTNB reagent based Ellman's method relative to control
readout.label: inhibition (%)
Value expressed in %; do not type the unit.

* COc1ccc2c3c1O[C@H]1C[C@@H](OC(=O)NCc4ccc(C(F)(F)F)cc4)C=C[C@@]31CCN(C)C2 | 14.9
* COc1ccc2c3c1O[C@H]1C[C@@H](OC(=O)NC4CCN(Cc5ccc(F)cc5F)CC4)C=C[C@@]31CCN(C)C2 | 19.9
* COc1ccc2c3c1O[C@H]1C[C@@H](OC(=O)NC4CCN(Cc5cccc(C(F)(F)F)c5)CC4)C=C[C@@]31CCN(C)C2 | 25.1
* COc1ccc2c3c1O[C@H]1C[C@@H](OC(=O)NCc4ccc5[nH]ccc5c4)C=C[C@@]31CCN(C)C2 | 3.54

Qu. Requested read-out: inhibition. Entry: COc1ccc2c3c1O[C@H]1C[C@@H](OCc4ccc(Cc5cccc(F)c5)cn4)C=C[C@@]31CCN(C)C2
Ans. 92.3

Qu. Subsequent entry: COc1ccc2c3c1O[C@H]1C[C@@H](OC(=O)NC4CCN(Cc5ccc(C#N)cc5)CC4)C=C[C@@]31CCN(C)C2
Ans. 21.3

----------
study.target: UniProt:P06276
experimental.protocol: Inhibition of human serum BuChE using butyrylthiocholine iodide as substrate incubated for 10 mins followed by substrate addition by DTNB reagent based Ellman's method
readout.label: IC50 (µM)
Write the number in µM without appending the unit.

# count of solved cases: 3
• COc1ccc2c3c1O[C@H]1C[C@@H](OCc4ccc(Cc5ccc(Cl)cc5)cn4)C=C[C@@]31CCN(C)C2 = 1.03
• COc1ccccc1Cc1ccc(CO[C@H]2C=C[C@@]34CCN(C)Cc5ccc(OC)c(c53)O[C@H]4C2)nc1 = 2.66
• COc1ccc2c3c1O[C@H]1C[C@@H](OCc4ccc(Cc5ccc(C)cc5)cn4)C=C[C@@]31CCN(C)C2 = 1.35

Qu. # get_value(readout='IC50', item= COc1ccc2c3c1O[C@H]1C[C@@H](OCc4ccc(Cc5ccccc5)cn4)C=C[C@@]31CCN(C)C2 )
Ans. 1.5

Qu. Check COc1ccc2c3c1O[C@H]1C[C@@H](OCc4ccc(Cc5cccc(Cl)c5)cn4)C=C[C@@]31CCN(C)C2 too.
Ans. 0.913

Qu. Try the compound COc1ccc2c3c1O[C@H]1C[C@@H](OCc4ccc(Cc5ccccc5F)cn4)C=C[C@@]31CCN(C)C2
Ans. 0.358

----------
System: PC-12
experimental.protocol: Neuroprotective activity against H2O2-induced rat PC12 cells assessed as protection against H2O2-induced apoptosis by measuring early apoptotic cells at 50 uM pretreated for 2 hrs followed by H2O2 addition and measured after 24 hrs by Annexin V-FITC/PI staining based flow cytometry analysis (reference value: 0.88 %)
Format: functional
condition.summary: time 26 hrs
Please use True for Activity under 9% and False for everything else, ties included.

Please review the entries below; each comes with its answer.
• COc1ccc2c3c1O[C@H]1C[C@@H](O)C=C[C@@]31CCN(C)C2 = False
• COc1ccc2c3c1O[C@H]1C[C@@H](OCc4ccc(Cc5ccccc5F)cn4)C=C[C@@]31CCN(C)C2 = True
• COc1ccc2c3c1O[C@H]1C[C@@H](OC(=O)NC4CCN(Cc5cccc(F)c5)CC4)C=C[C@@]31CCN(C)C2 = True
• Oc1ccc(/C=C/c2cc(O)cc(O)c2)cc1 = True
• COc1ccc2c3c1O[C@H]1C[C@@H](OCc4ccc(Cc5cccc(Cl)c5)cn4)C=C[C@@]31CCN(C)C2 = False

Now, please, on to the next compound.
Qu. Is Activity strictly under 9% for the entry COc1ccc2c3c1O[C@H]1C[C@@H](OC(=O)NC4CCN(Cc5ccccc5)CC4)C=C[C@@]31CCN(C)C2 ?
Ans. True

----------
experimental.protocol: Inhibition of H2O2-induced ROS release in rat PC12 cells assessed as mean fluorescence intensity at 50 uM preincubated for 2 hrs followed by H2O2 addition and measured after 24 hrs by DCFH-DA based flow cytometry analysis (reference value: 23904)
Format: functional, PC-12
condition.summary: time 26 hrs
readout.label: Flu intensity

// worked examples, Flu intensity included
* COc1ccc2c3c1O[C@H]1C[C@@H](OC(=O)NC4CCN(Cc5ccccc5)CC4)C=C[C@@]31CCN(C)C2 | 76256
* COc1ccc2c3c1O[C@H]1C[C@@H](OCc4ccc(Cc5cccc(Cl)c5)cn4)C=C[C@@]31CCN(C)C2 | 88808
* Oc1ccc(/C=C/c2cc(O)cc(O)c2)cc1 [RESVERATROL] | 29540
* COc1ccc2c3c1O[C@H]1C[C@@H](O)C=C[C@@]31CCN(C)C2 [GALANTAMINE] | 89205
* COc1ccc2c3c1O[C@H]1C[C@@H](OC(=O)NC4CCN(Cc5cccc(F)c5)CC4)C=C[C@@]31CCN(C)C2 | 52051

Turning now to a further molecule:
Qu. Requested field: Flu intensity. Item: COc1ccc2c3c1O[C@H]1C[C@@H](OCc4ccc(Cc5ccccc5F)cn4)C=C[C@@]31CCN(C)C2
Ans. 41314

----------
Consider the following pIC50 values measured on Acetylcholinesterase (Homo sapiens).
Sequence (P22303 whole entry): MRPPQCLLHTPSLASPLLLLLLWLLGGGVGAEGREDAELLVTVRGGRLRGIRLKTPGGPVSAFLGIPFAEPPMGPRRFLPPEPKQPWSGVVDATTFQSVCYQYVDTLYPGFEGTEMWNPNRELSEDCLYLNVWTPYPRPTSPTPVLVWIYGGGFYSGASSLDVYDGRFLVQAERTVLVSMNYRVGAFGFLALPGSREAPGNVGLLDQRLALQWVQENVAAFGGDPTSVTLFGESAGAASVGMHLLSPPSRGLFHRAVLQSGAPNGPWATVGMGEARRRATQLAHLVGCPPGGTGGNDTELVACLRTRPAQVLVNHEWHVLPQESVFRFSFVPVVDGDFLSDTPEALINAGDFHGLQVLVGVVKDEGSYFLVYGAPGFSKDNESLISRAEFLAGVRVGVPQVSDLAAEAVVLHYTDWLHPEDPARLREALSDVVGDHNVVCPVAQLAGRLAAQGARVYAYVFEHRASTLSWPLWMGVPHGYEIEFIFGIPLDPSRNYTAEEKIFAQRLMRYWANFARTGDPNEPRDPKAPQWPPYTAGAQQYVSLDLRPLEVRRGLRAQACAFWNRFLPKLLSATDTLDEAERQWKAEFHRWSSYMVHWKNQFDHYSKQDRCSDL
Keep it numeric: pIC50 is minus log10 of the concentration in mol/L.

Consider the worked cases shown below.
- COc1ccc2c3c1O[C@H]1C[C@@H](OC(=O)NC4CCN(Cc5ccc(OC(F)(F)F)cc5)CC4)C=C[C@@]31CCN(C)C2: 6.35
- COc1ccc2c3c1O[C@H]1C[C@@H](OC(=O)NC4CCN(Cc5cccc(F)c5)CC4)C=C[C@@]31CCN(C)C2: 6.38

Qu. So what's the measured pIC50 for this one? COc1ccc2c3c1O[C@H]1C[C@@H](OC(=O)NC4CCN(Cc5ccccc5)CC4)C=C[C@@]31CCN(C)C2
Ans. 6.43

----------
study.target: Cholinesterase (Homo sapiens)
experimental.protocol: Inhibition of human serum BuChE using butyrylthiocholine iodide as substrate at 10 uM incubated for 10 mins followed by substrate addition by DTNB reagent based Ellman's method relative to control
inhibition overview
Could you write the number and then its unit?

Qu. Entry under review: COc1ccc2c3c1O[C@H]1C[C@@H](OC(=O)NCc4ccc5ccccc5c4)C=C[C@@]31CCN(C)C2 . Reported inhibition?
Ans. 6.44%

Qu. What do you get for COc1ccc2c3c1O[C@H]1C[C@@H](OC(=O)NCc4cccc(F)c4)C=C[C@@]31CCN(C)C2 ?
Ans. 14.6%

Qu. # iterate: COc1ccc2c3c1O[C@H]1C[C@@H](OC(=O)NC4CCN(Cc5ccccc5)CC4)C=C[C@@]31CCN(C)C2
Ans. 29.2%

Qu. Subsequent entry: COc1ccc2c3c1O[C@H]1C[C@@H](OC(=O)NCc4ccc(OC(F)(F)F)cc4)C=C[C@@]31CCN(C)C2
Ans. 18.2%

Qu. Next compound: COc1ccc2c3c1O[C@H]1C[C@@H](OC(=O)NCc4ccccc4C)C=C[C@@]31CCN(C)C2
Ans. 9.54%

Qu. Also check COc1ccc2c3c1O[C@H]1C[C@@H](OC(=O)NCc4ccc(F)cc4)C=C[C@@]31CCN(C)C2
Ans. 12.7%

----------
study.target: Acetylcholinesterase (Homo sapiens)
Threshold 1000 nM: IC50 strictly smaller gives met, otherwise not met.

Observe how each entry below is paired with its result.
* COc1ccc2c3c1O[C@H]1C[C@@H](OCc4ccc(Cc5cccc(Cl)c5)cn4)C=C[C@@]31CCN(C)C2 | not met
* COc1ccc2c3c1O[C@H]1C[C@@H](OC(=O)NC4CCN(Cc5cccc(C(F)(F)F)c5)CC4)C=C[C@@]31CCN(C)C2 | met
* COc1ccc2c3c1O[C@H]1C[C@@H](OC(=O)NC4CCN(Cc5ccc(F)cc5)CC4)C=C[C@@]31CCN(C)C2 | met

Now take the following molecule into account.
Qu. Does the reported IC50 of COc1ccc2c3c1O[C@H]1C[C@@H](OCc4ccc(Cc5ccccc5F)cn4)C=C[C@@]31CCN(C)C2 stay below 1000 nM?
Ans. met

----------
Reported pIC50 values are given for each entry in this list.
study.target: Cholinesterase (Homo sapiens, UniProt P06276)
experimental.protocol: Inhibition of human serum BuChE using butyrylthiocholine iodide as substrate incubated for 10 mins followed by substrate addition by DTNB reagent based Ellman's method
Note on pIC50: it is the negative log10 of concentration, concentration in mol/L.

Qu. Quick one: pIC50 for COc1cccc(Cc2ccc(CO[C@H]3C=C[C@@]45CCN(C)Cc6ccc(OC)c(c64)O[C@H]5C3)nc2)c1 ?
Ans. 5.97

Qu. Entry COc1ccc(Cc2ccc(CO[C@H]3C=C[C@@]45CCN(C)Cc6ccc(OC)c(c64)O[C@H]5C3)nc2)cc1 please
Ans. 5.88

Qu. Same for COc1ccc2c3c1O[C@H]1C[C@@H](OCc4ccc(Cc5ccc(F)cc5)cn4)C=C[C@@]31CCN(C)C2
Ans. 6.00

Qu. Okay, and COc1ccc2c3c1O[C@H]1C[C@@H](OCc4ccc(Cc5cccc(F)c5)cn4)C=C[C@@]31CCN(C)C2 ?
Ans. 6.13
